The measured values listed here are drawn from patent US9388140B2.

SYSTEM: human kinase Mps-1 (Homo sapiens (Human))
Sequence (P33981 whole entry): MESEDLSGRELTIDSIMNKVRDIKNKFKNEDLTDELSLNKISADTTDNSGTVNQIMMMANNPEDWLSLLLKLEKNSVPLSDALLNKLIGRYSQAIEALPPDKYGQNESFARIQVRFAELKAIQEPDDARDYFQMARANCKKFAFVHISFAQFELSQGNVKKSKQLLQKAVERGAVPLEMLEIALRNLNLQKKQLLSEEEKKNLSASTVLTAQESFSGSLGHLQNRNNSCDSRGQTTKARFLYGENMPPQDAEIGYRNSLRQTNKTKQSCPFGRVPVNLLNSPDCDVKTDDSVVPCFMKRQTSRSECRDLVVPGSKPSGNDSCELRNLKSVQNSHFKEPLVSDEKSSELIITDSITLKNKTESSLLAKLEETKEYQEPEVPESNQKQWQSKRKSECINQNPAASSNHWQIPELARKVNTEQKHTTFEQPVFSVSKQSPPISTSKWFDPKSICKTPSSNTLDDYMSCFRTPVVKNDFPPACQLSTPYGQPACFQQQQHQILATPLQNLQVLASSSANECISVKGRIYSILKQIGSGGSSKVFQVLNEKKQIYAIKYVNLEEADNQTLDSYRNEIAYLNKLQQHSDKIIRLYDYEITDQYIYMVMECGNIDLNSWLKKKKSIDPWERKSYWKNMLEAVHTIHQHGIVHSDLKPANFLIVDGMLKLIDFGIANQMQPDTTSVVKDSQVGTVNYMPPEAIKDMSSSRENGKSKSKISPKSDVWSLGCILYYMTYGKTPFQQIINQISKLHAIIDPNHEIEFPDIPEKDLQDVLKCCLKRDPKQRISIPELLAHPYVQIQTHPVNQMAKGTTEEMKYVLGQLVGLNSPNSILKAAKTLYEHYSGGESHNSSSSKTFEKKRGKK
MEASUREMENT_PROTOCOL: Mps-1 kinase assay (TR-FRET)
Format: biochemical
RECORDED_CONDITIONS: N-terminally GST-tagged human full length recombinant Mps-1; 10 μM ATP; 1 μM biotinylated peptide substrate; read-out: Mps1 IC50
pIC50: −log10 of the molar value.
pIC50 by entry:
PROPERTY_LABEL: pIC50

[
  {
    "COMPOUND": "COc1ccc(Oc2cc(NCCC(F)(F)F)c3ncn(-c4ccc(C(=O)NC5CC5)c(C)c4)c3c2)cc1F",
    "PROPERTY_LABEL": "pIC50",
    "READING": 9.15
  },
  {
    "COMPOUND": "Cc1cc(-n2cnc3c(NCC4CCOCC4)cc(Oc4ccc(O)cc4F)cc32)ccc1C(=O)NC1CC1 [Example 116A]",
    "PROPERTY_LABEL": "pIC50",
    "READING": 9.00
  },
  {
    "COMPOUND": "CNC(=O)c1ccc(-n2cnc3c(NCCC(F)(F)F)cc(Oc4cccc(F)c4OC)cc32)cc1C",
    "PROPERTY_LABEL": "pIC50",
    "READING": 7.48
  },
  {
    "COMPOUND": "Cc1cc(F)cc(Oc2cc(NCCC(F)(F)F)c3ncn(-c4ccc(C(=O)NC5CC5)c(C)c4)c3c2)c1",
    "PROPERTY_LABEL": "pIC50",
    "READING": 8.74
  },
  {
    "COMPOUND": "CCNC(=O)c1ccc(-n2cnc3c(NCC4CCOCC4)cc(Oc4ccc(O)c(F)c4)cc32)cc1C [Example 113A]",
    "PROPERTY_LABEL": "pIC50",
    "READING": 8.20
  },
  {
    "COMPOUND": "CNC(=O)c1ccc(-n2cnc3c(NCC4CCOCC4)cc(Oc4ccc(OC)c(F)c4)cc32)cc1C",
    "PROPERTY_LABEL": "pIC50",
    "READING": 8.31
  },
  {
    "COMPOUND": "CCNC(=O)c1ccc(-c2cc(NCCC(F)(F)F)c3ncn(-c4ccc(C(=O)NC5CC5)c(C)c4)c3c2)cc1C",
    "PROPERTY_LABEL": "pIC50",
    "READING": 8.72
  }
]

* * *

SYSTEM: UniProtKB P33981
MEASUREMENT_PROTOCOL: Mps-1 kinase assay (TR-FRET)
Format: biochemical
RECORDED_CONDITIONS: N-terminally GST-tagged human full length recombinant Mps-1; 10 μM ATP; 1 μM biotinylated peptide substrate; read-out: Mps1 IC50
pIC50: −log10 of the molar value.
// label = MET if pIC50 is not less than 8, otherwise NOT MET

[
  {
    "COMPOUND_STRUCTURE": "C=C(c1ccc(OC)c(F)c1)c1cc(NCCC(F)(F)F)c2ncn(-c3ccc(C(=O)NC4CC4)c(C)c3)c2c1",
    "CATEGORY_LABEL": "MET"
  },
  {
    "COMPOUND_STRUCTURE": "CNC(=O)c1ccc(-n2cnc3c(NCCC(F)(F)F)cc(Oc4ccc(O)cc4)cc32)cc1C",
    "CATEGORY_LABEL": "MET"
  },
  {
    "COMPOUND_STRUCTURE": "COc1cc(C#N)ccc1Oc1cc(NCCC(F)(F)F)c2ncn(-c3ccc(C(=O)NC4CC4)c(C)c3)c2c1",
    "CATEGORY_LABEL": "NOT MET"
  },
  {
    "COMPOUND_STRUCTURE": "CNC(=O)c1ccc(-n2cnc3c(NCC4CCOCC4)cc(Oc4ccc(O)c(F)c4)cc32)cc1C",
    "CATEGORY_LABEL": "MET"
  },
  {
    "COMPOUND_STRUCTURE": "CCNC(=O)c1ccc(-n2cnc3c(NCCC(F)(F)F)cc(Oc4cccc(F)c4F)cc32)cc1C",
    "CATEGORY_LABEL": "MET"
  }
]
